Test system: S. epidermidis ATCC 12228
Experiment: MIC, 96-well microtiter broth dilution
Type: cell-based
Conditions: Staphylococcus epidermidis, ATCC12228, read-out: MIC S. epidermidis ATCC 12228
Collected MIC values appear next to each entry.
measurementKind: MIC (µg/mL)

1. CSc1ccc(/C=C/c2cc(/C=C3\Sc4ccccc4N3CCCN3CCCC3)c3ccccc3[n+]2C)cc1.[I-] = 16
2. COc1cccc(OC)c1C(=O)N[C@@H]1C(=O)N2[C@@H]1SC(C)(C)[C@@H]2C(=O)O [meth, methicillin, reference compound] = 0.5
3. Cc1cc(/C=C2\Sc3ccccc3N2CCCN2CCCCC2)c2ccccc2[n+]1C.[I-] = 8
4. CC1CCN(CCCN2/C(=C/c3cc[n+](C)c4ccccc34)Sc3ccccc32)CC1.[I-] = 0.25
5. C[n+]1c(/C=C/c2ccc(O)cc2)cc(/C=C2\Sc3ccccc3N2CCCN2CCCC2)c2ccccc21.[I-] = 16
6. C[n+]1c(/C=C/c2c[nH]c3ccccc23)cc(/C=C2\Sc3ccccc3N2CCCN2CCOCC2)c2ccccc21.[I-] = 2
7. C[n+]1ccc(/C=C2\Sc3ccccc3N2CCCN2CCCCC2)c2ccccc21.[I-] = 2
8. C[n+]1c(/C=C/c2ccc(O)cc2)cc(/C=C2\Sc3ccccc3N2CCCN2CCOCC2)c2ccccc21.[I-] = 4
9. CO[C@H]1/C=C/O[C@@]2(C)Oc3c(C)c(O)c4c(O)c(c(/C=N/N5CCN(C)CC5)c(O)c4c3C2=O)NC(=O)/C(C)=C\C=C\[C@H](C)[C@H](O)[C@@H](C)[C@@H](O)[C@@H](C)[C@H](OC(C)=O)[C@@H]1C [rif, rifampin, reference compound] = 1
10. Cc1cc(/C=C2\Sc3ccccc3N2CCCN2CCC(C)CC2)c2ccccc2[n+]1C.[I-] = 0.5
11. C[n+]1c(/C=C/c2c[nH]c3ccccc23)cc(/C=C2\Sc3ccccc3N2CCCN2CCCC2)c2ccccc21.[I-] = 2
